tested on: Brain; assay: Drug level in rat brain at 3 mg/kg, iv; assay type: ADME, organism-based; set-up: dose 3 mg/kg, route intravenous; details: in vivo, read-out: Drug uptake
measurement_name: concentration (nM)
Dear colleague, please return just the value in nM, with no unit written.

Query CC(C)(C)NC(=O)Cn1c(-c2ccc(OC(F)(F)F)cc2)cc2cc(C(C)(C)C(=O)NC(C)(C)C)ccc21 yields concentration of 1400

* * *

assay: Plasma concentration in rat at 30 mg/kg, po after 3 hrs; format: ADME, organism-based; parameters: dose 30 mg/kg, route oral; details: read-out: Activity
measurement_name: concentration at 3 h

Recorded concentration at 3 h (compound CC(C)(C)NC(=O)Cn1c(-c2ccc(OC(F)(F)F)cc2)cc2cc(C(C)(C)C(=O)NC(C)(C)C)ccc21 ): 750 nM

* * *

assay: Oral bioavailability in rat at 3 mg/kg; type: ADME, organism-based; conditions: in vivo
Attribute: bioavailability
Value expressed in %; do not type the unit.

In the examples that follow, each entry is paired with its recorded bioavailability.
{"columns": ["chemical_smiles", "bioavailability (%)"],
 "data": [
  ["CC(C)(C)NC(=O)Cn1c(-c2ccccc2OC(F)(F)F)cc2cc(C(C)(C)C(=O)NC(C)(C)C)ccc21", 38],
  ["CC(C)(C)NC(=O)Cn1c(-c2ccc(OC(F)(F)F)cc2)cc2cc(C(C)(C)C(=O)NC(C)(C)C)ccc21", 68]
]}

From here, focus on the item given below.
Sample CC(C)(C)NC(=O)Cn1c(-c2cccc(OC(F)(F)F)c2)cc2cc(C(C)(C)C(=O)NC(C)(C)C)ccc21 ; bioavailability observed: 26

* * *

system: Plasma; assay: Plasma concentration in rat at 3 mg/kg, iv; format: ADME, organism-based; parameters: dose 3 mg/kg, route intravenous; settings: in vivo, read-out: Drug uptake
measurement_name: concentration (nM)
Please state the figure in nM; there is no need to write the unit.

Value of concentration reported for the compound CC(C)(C)NC(=O)Cn1c(-c2ccc(OC(F)(F)F)cc2)cc2cc(C(C)(C)C(=O)NC(C)(C)C)ccc21 is 1900

* * *

Reported inhibition at 10 µM values are given for each entry in this list.
test system: hERG (Homo sapiens); experiment: Blockade of hERG channel at 10 uM by displacement of MK-0499 binding
Note: unit % is implicit; provide only the numeric part.

{"columns": ["molecule", "unit_annotation", "numeric_readout"],
 "data": [
  ["Cc1cc(C)cc(-c2cc3cc(C(C)(C)C(=O)NC(C)(C)C)ccc3n2Cc2c(C)noc2C)c1", "%", 65],
  ["Cc1cc(C)cc(-c2cc3cc(C(C)(C)C(=O)NC(C)(C)C)ccc3n2CC(=O)OC(C)(C)C)c1", "%", 60],
  ["Cc1cc(C)cc(-c2cc3cc(C(=O)NC(C)(C)C)ccc3n2CC(C)O)c1 (centres undefined)", "%", 64]
]}

Shift focus to the following entry.
Noted for Cc1cc(C)cc(-c2cc3cc(C(C)(C)C(=O)NC(C)(C)C)ccc3n2CC(=O)NC(C)(C)C)c1 : its inhibition at 10 µM reads 33

* * *

experiment: Plasma concentration in rat spinal nerve ligation model at 30 mg/kg, po after 1 hrs; type: ADME, organism-based; design: dose 30 mg/kg, route oral; conditions: read-out: Activity
measurement_name: concentration at 1 h (nM)
Give the value in nM but do not write nM after it.

Record CC(C)(C)NC(=O)Cn1c(-c2ccc(OC(F)(F)F)cc2)cc2cc(C(C)(C)C(=O)NC(C)(C)C)ccc21 , field concentration at 1 h: 410

* * *

target: Cav1.2 (voltage-dependent L-type calcium channel subunit alpha-1C) (Homo sapiens, UniProt Q13936); experiment: Blockade of Cav1.2 channel at 10 uM by fluorescent calcium-influx assay
Sequence (Q13936 whole entry): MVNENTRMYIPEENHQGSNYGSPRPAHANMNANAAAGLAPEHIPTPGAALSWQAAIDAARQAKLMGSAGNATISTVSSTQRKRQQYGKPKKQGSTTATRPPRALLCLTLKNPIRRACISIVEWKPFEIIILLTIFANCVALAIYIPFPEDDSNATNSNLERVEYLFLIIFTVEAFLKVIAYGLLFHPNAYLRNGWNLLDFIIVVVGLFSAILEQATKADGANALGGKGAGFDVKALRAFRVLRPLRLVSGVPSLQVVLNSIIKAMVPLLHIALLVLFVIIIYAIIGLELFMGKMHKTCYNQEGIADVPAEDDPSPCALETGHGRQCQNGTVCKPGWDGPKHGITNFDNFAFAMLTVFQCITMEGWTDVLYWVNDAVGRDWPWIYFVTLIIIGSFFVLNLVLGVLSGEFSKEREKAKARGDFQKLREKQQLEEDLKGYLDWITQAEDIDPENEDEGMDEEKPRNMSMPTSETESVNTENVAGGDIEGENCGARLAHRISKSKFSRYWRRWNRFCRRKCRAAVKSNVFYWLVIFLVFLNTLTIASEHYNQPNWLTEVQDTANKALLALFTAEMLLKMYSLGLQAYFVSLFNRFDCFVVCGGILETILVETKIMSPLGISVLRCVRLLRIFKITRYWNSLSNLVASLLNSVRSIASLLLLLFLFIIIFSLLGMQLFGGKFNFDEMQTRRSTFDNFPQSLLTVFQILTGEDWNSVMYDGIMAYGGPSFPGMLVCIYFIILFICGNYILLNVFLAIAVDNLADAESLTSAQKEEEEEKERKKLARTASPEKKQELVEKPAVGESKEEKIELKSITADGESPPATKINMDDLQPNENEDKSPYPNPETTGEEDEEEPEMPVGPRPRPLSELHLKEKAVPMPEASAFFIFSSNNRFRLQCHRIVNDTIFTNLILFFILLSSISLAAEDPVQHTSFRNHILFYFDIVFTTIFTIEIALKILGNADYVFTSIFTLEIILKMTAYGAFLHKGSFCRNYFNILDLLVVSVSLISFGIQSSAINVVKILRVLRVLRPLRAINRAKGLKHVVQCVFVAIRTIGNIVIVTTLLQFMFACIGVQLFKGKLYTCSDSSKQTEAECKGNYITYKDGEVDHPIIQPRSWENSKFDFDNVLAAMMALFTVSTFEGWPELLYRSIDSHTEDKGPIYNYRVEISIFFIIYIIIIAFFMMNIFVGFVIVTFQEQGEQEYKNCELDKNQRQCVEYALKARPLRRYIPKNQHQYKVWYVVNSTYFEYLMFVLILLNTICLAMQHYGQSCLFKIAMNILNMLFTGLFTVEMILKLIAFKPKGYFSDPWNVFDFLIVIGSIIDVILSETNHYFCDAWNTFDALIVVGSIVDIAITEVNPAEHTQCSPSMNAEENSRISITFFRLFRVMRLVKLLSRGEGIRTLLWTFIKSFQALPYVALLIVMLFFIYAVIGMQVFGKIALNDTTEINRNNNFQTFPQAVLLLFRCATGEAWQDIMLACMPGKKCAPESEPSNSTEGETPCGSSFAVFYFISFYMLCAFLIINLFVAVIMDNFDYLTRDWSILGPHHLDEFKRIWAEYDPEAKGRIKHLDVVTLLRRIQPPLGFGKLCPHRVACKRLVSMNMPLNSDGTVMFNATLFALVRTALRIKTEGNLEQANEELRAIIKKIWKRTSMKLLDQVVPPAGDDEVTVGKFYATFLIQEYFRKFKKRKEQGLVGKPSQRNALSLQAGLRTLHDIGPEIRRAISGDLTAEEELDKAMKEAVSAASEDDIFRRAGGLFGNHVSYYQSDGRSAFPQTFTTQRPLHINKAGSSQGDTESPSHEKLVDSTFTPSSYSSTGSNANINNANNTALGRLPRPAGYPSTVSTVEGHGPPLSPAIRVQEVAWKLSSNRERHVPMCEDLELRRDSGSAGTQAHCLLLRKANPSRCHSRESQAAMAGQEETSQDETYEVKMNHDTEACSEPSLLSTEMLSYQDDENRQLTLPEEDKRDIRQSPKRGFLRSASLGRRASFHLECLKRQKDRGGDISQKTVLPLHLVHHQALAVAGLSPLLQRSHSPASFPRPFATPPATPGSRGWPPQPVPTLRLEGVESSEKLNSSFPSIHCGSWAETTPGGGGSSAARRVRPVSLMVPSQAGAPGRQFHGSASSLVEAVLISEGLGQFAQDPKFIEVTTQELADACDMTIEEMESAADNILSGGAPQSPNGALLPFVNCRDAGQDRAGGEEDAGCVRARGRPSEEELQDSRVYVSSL
Given measured inhibition at 10 µM, output Met if it is greater than or equal to 80% and Not met if not.

{"columns": ["molecule", "class_label"],
 "data": [
  ["CC(C)(C)NC(=O)Cn1c(-c2cc(C(F)(F)F)cc(C(F)(F)F)c2)cc2cc(C(C)(C)C(=O)NC(C)(C)C)ccc21", "Not met"],
  ["CC(C)(C)NC(=O)Cn1c(-c2cc(F)cc(C(F)(F)F)c2)cc2cc(C(C)(C)C(=O)NC(C)(C)C)ccc21", "Met"],
  ["COCCn1c(-c2cc(C)cc(C)c2)cc2cc(C(C)(C)C(=O)NC(C)(C)C)ccc21", "Not met"]
]}

Lookup: Dear colleague, could you confirm whether CCCN[C@@H](C)c1c(-c2cc(C)cc(C)c2)[nH]c2ccc(C(C)(C)C(=O)N3C4CCC3CC4)cc12 has inhibition at 10 µM at or above 80%?
Found: Not met

Lookup: Would you say Cc1cc(C)cc(-c2cc3cc(C(C)(C)CO)ccc3n2CC(C)O)c1 (configuration not stated) shows inhibition at 10 µM at minimum 80%?
Found: Not met

Lookup: Would you say Cc1cc(C)cc(-c2cc3cc(C(=O)NC(C)(C)C)ccc3n2CC(C)O)c1 (configuration not stated) shows inhibition at 10 µM at minimum 80%?
Found: Met

Lookup: # check: inhibition at 10 µM of COC(=O)C(C)(C)c1ccc2c(c1)cc(-c1cc(C)cc(C)c1)n2CC(C)O (configuration not stated) is greater than or equal to 80%
Found: Not met

Lookup: Does the reported inhibition at 10 µM for Cc1cc(C)cc(-c2cc3cc(OC(F)(F)F)ccc3n2CC(C)O)c1 (configuration not stated) fall at or above the 80% mark?
Found: Not met

Lookup: Is inhibition at 10 µM for Cc1cc(C)cc(-c2cc3cc(C(C)(C)C(=O)NC(C)(C)C)ccc3n2CC(=O)OC(C)(C)C)c1 at or above 80%?
Found: Not met

Lookup: Has CC(C)(C)NC(=O)Cn1c(-c2cccc(OC(F)(F)F)c2)cc2cc(C(C)(C)C(=O)NC(C)(C)C)ccc21 a recorded inhibition at 10 µM greater than or equal to 80%?
Found: Met

Lookup: Textbook exercise: given the entry CC(C)(C)NC(=O)Cn1c(C(=O)NC(C)(C)C)cc2cc(C(C)(C)C(=O)NC(C)(C)C)ccc21 , state whether its inhibition at 10 µM is greater than or equal to 80%.
Found: Not met

Lookup: Entry CC(C)(C)NC(=O)C(c1ccccn1)n1ccc2cc(C(C)(C)C(=O)NC(C)(C)C)ccc21 (configuration not stated) : is its inhibition at 10 µM no less than 80%?
Found: Not met

Lookup: Is inhibition at 10 µM for CCOC(=O)C(C)(C)c1ccc2c(c1)c([C@H](C)CO)c(-c1cc(C)cc(C)c1)n2C(=O)OC(C)(C)C at or above 80%?
Found: Not met

Lookup: Test whether the molecule CC(C)(C)NC(=O)Cn1c(-c2ccc(OC(F)(F)F)cc2)cc2cc(C(C)(C)C(=O)NC(C)(C)C)ccc21 records inhibition at 10 µM of 80% or higher.
Found: Met

* * *

Target: Nuclear receptor subfamily 1 group I member 2 (Homo sapiens, UniProt O75469)
Sequence (O75469 whole entry): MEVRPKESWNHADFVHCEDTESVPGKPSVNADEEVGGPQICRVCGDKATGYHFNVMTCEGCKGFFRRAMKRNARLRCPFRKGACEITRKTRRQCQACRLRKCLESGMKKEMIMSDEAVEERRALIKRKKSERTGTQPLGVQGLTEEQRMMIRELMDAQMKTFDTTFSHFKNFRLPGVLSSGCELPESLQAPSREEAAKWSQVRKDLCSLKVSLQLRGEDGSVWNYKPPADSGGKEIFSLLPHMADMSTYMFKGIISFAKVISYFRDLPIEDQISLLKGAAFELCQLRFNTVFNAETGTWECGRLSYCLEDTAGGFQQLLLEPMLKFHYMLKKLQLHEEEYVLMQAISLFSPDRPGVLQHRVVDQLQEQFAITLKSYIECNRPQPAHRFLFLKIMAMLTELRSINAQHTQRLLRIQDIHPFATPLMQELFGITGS
Test: Activity at PXR by induction assay
pEC50: −log10 of the molar value.
# pEC50 >= 6 gives TRUE, anything below gives FALSE

Below are worked cases with known answers.
{"columns": ["compound", "class_label"],
 "data": [
  ["CC(C)(C)NC(=O)C(c1ccccn1)n1ccc2cc(C(C)(C)C(=O)NC(C)(C)C)ccc21 (stereo not drawn)", "TRUE"],
  ["CC(C)(C)NC(=O)Cn1c(-c2ccc(OC(F)(F)F)cc2)cc2cc(C(C)(C)C(=O)NC(C)(C)C)ccc21", "FALSE"],
  ["CC(C)(C)NC(=O)Cn1c(C(=O)NC(C)(C)C)cc2cc(C(C)(C)C(=O)NC(C)(C)C)ccc21", "FALSE"],
  ["CC(C)(C)NC(=O)Cn1c(-c2ccccc2)cc2cc(C(C)(C)C(=O)NC(C)(C)C)ccc21", "FALSE"],
  ["Cc1cc(C)cc(-c2cc3cc(C(C)(C)C(=O)NC(C)(C)C)ccc3n2CC(=O)NC(C)(C)C)c1", "FALSE"]
]}

Lookup: Threshold query (pEC50 >= 6) on CC(C)(C)NC(=O)Cn1c(-c2ccc(F)cc2)cc2cc(C(C)(C)C(=O)NC(C)(C)C)ccc21
Found: FALSE

Lookup: Reported pEC50 at or above 6? CC(C)(C)NC(=O)Cn1c(-c2cc(C(F)(F)F)cc(C(F)(F)F)c2)cc2cc(C(C)(C)C(=O)NC(C)(C)C)ccc21
Found: FALSE
